The origin of these recorded values is patent US10597388B2.

Documented Plant response rating, Crabgrass, Large across a set of compounds
- System: crabgrass, large (large crabgrass, Digitaria sanguinalis)
- PROTOCOL_DETAILS: Test C greenhouse herbicide test, pre- and postemergence
- Format: in vivo
- SETTINGS: Postemergence, 250 g ai/ha; scale 0 to 100, 0 no effect, 100 complete control; 13 to 15 d
- From the text: […]
# answer = number (no unit)

Solved entries (count: 3):
Cc1cc(C)c2sc(C)c(-c3c(OC(=O)OCCCl)c(C)nn(C)c3=O)c2c1 [Compound 85]: 45
COc1nn(C)c(=O)c(-c2c(C)sc3ccc(Cl)cc23)c1O [Compound 100]: 15
Cc1nn(C)c(=O)c(-c2c(C)sc3ccccc23)c1O [Compound 65]: 25

Lab note: measured Plant response rating, Crabgrass, Large of COc1nn(C)c(=O)c(-c2c(C)sc3ccccc23)c1O [Compound 33] was 25

Lab note: Cc1ccc2ccc(C)c(-c3c(O)c(C)nn(C)c3=O)c2c1 [Compound 60] gave Plant response rating, Crabgrass, Large of 65

The value of Plant response rating, Crabgrass, Large measured for the compound CCOC(=O)Oc1c(C)nn(C)c(=O)c1-c1c(C)ccc2ccccc12 [Compound 73] turned out to be 75

Noted for Cc1sc2ccc(Cl)cc2c1-c1c(OS(C)(=O)=O)c(Cl)nn(C)c1=O [Compound 114] : its Plant response rating, Crabgrass, Large reads 25

Entry CCCC(=O)Oc1c(C)nn(C)c(=O)c1-c1c(C)sc2c(C)cc(C)cc12 [Compound 106] ; Plant response rating, Crabgrass, Large = 30

====

- Test system: kochia (Kochia scoparia)
- PROTOCOL_DETAILS: Test D controlled growth environment herbicide test, pre- and postemergence
- Type: in vivo
- SETTINGS: Postemergence, 31 g ai/ha; scale 0 to 100 (0 no effect, 100 complete control)
PROPERTY: Kochia plant response rating
Just the number, please.

C#CCOC(=O)Oc1c(C)nn(C)c(=O)c1-c1c(C)sc2ccc(C)cc12 [Compound 87]: 85
CCOC(=O)Oc1c(C)nn(C)c(=O)c1-c1c(C)sc2c(C)cc(C)cc12 [Compound 83]: 70
COC(=O)Oc1c(C)nn(C)c(=O)c1-c1c(C)sc2c(C)cc(C)cc12 [Compound 81]: 60

Next item in the queue.
Entry Cc1nn(C)c(=O)c(-c2c(C)sc3ccc(Cl)cc23)c1O [Compound 104] , Kochia plant response rating reported as 95

====

Attribute: Plant response rating, Dayflower, VA
- Tested on: dayflower (Virginia (VA) dayflower, Commelina virginica)
- PROTOCOL_DETAILS: Test E greenhouse herbicide test, pre- and postemergence
- Assay type: in vivo
- SETTINGS: 250 g ai/ha, Postemergence; scale 0 to 100 (0 no effect, 100 complete control)
Respond using a number only.

Below, each entry is followed by its recorded Plant response rating, Dayflower, VA result.
CSCC(=O)Oc1c(C)nn(C)c(=O)c1-c1cccc2ccccc12: 90
CCOC(=O)Oc1c(C)nn(C)c(=O)c1-c1c(C)sc2ccc(C)cc12: 65
CCC(=O)Oc1c(C)nn(C)c(=O)c1-c1c(C)sc2ccc(C)cc12: 70
CC(=O)Oc1c(C)nn(C)c(=O)c1-c1c(C)cc(C)c2ccccc12: 95

Recorded Plant response rating, Dayflower, VA (molecule COC(=O)Oc1c(C)nn(C)c(=O)c1-c1c(C)sc2c(C)cc(C)cc12 ): 80

====

Readings of Plant response rating, Pigweed, Palmer for the listed molecules
- Test system: pigweed, palmer (palmer pigweed, Amaranthus palmeri)
- PROTOCOL_DETAILS: Test E greenhouse herbicide test, pre- and postemergence
- Assay type: in vivo
- SETTINGS: Postemergence, 31 g ai/ha; visual, scale 0 no effect to 100 complete control
Number only, please.

Please review the entries below; each comes with its answer.
CSCC(=O)Oc1c(C)nn(C)c(=O)c1-c1cccc2ccccc12: 50
COc1nn(C)c(=O)c(-c2c(C)sc3ccc(Cl)cc23)c1O: 20
CCOC(=O)Oc1c(C)nn(C)c(=O)c1-c1c(C)sc2ccc(C)cc12: 50
CCOC(=O)Oc1c(C)nn(C)c(=O)c1-c1c(C)sc2c(C)cc(C)cc12: 40

Item: CC(=O)Oc1c(C)nn(C)c(=O)c1-c1c(C)sc2ccc(C)cc12 | Plant response rating, Pigweed, Palmer: 75

====

- Test system: lambsquarters (Chenopodium album)
- PROTOCOL_DETAILS: Test C greenhouse herbicide test, pre- and postemergence
- Type: in vivo
- SETTINGS: Postemergence, 250 g ai/ha; scale 0 to 100, 0 no effect, 100 complete control; 13 to 15 d
Below, each entry is listed with its recorded Plant response rating, Lambsquarters.
The response must contain the number and no unit.

Worked examples, 8 compounds total:
CCC(=O)Oc1c(C)nn(C)c(=O)c1-c1ccc(Br)c2ccccc12: 100
CCOC(=O)Oc1c(C)nn(C)c(=O)c1-c1c(C)ccc2ccccc12: 98
Cc1nn(C)c(=O)c(-c2c(C)sc3ccc(Cl)cc23)c1O: 100
Cc1nn(C)c(=O)c(-c2c(C)sc3ccccc23)c1O: 100
COc1nn(C)c(=O)c(-c2c(C)ccc3ccccc23)c1OC(=O)OC(C)C: 100
COc1nn(C)c(=O)c(-c2c(C)ccc3ccccc23)c1O: 100
CCC(=O)Oc1c(C)nn(C)c(=O)c1-c1c(C)sc2ccc(C)cc12: 98
Cc1ccc2ccccc2c1-c1c(O)c(Cl)nn(C)c1=O: 100

# Plant response rating, Lambsquarters of CCC(=O)Oc1c(Cl)nn(C)c(=O)c1-c1c(C)sc2ccc(Cl)cc12 = 100

For CCOC(=O)Oc1c(C)nn(C)c(=O)c1-c1c(C)sc2ccc(C)cc12 the compound record lists Plant response rating, Lambsquarters as 100

====

- System: wheat, spring (spring wheat, Triticum aestivum)
- PROTOCOL_DETAILS: Test D controlled growth environment herbicide test, pre- and postemergence
- Type: in vivo
- SETTINGS: Postemergence, 250 g ai/ha; scale 0 to 100 (0 no effect, 100 complete control)
Classify by measured Plant response rating, Wheat, Spring: Fulfilled if it is equal to or exceeds 20, Not fulfilled if it is smaller.

Worked examples follow.
Cc1ccc(-c2c(O)c(Br)nn(C)c2=O)c2ccccc12: Not fulfilled
Cc1ccc2sc(C)c(-c3c(O)c(C)nn(C)c3=O)c2c1: Not fulfilled
CCC(=O)Oc1c(C)nn(C)c(=O)c1-c1c(C)sc2ccc(Cl)cc12: Fulfilled

// next entry
Query: Is the recorded value of Plant response rating, Wheat, Spring equal to or greater than 20 for this compound? CCOC(=O)Oc1c(C)nn(C)c(=O)c1-c1c(C)ccc2ccccc12
Reply: Fulfilled

====

- System: speedwell (bird's-eye speedwell, Veronica persica)
- PROTOCOL_DETAILS: Test D controlled growth environment herbicide test, pre- and postemergence
- Assay type: in vivo
- SETTINGS: Preemergence, 31 g ai/ha
Recorded Plant response rating (scale of 0 to 100), Speedwell, one value per entry.
The answer should be a number; do not append a unit.

CC(=O)Oc1c(C)nn(C)c(=O)c1-c1ccc(F)c2ccccc12: 100

Recorded Plant response rating (scale of 0 to 100), Speedwell for CC(=O)Oc1c(C)nn(C)c(=O)c1-c1c(C)cc(C)c2ccccc12 on speedwell (bird's-eye speedwell, Veronica persica) was 100

Value (Plant response rating (scale of 0 to 100), Speedwell, speedwell (bird's-eye speedwell, Veronica persica)) for record CCC(=O)Oc1c(C)nn(C)c(=O)c1-c1c(C)sc2ccc(C)cc12 = 70

====

Listed compounds paired with reported Plant response rating (scale of 0 to 100), Foxtail, Green
- System: foxtail, green (green foxtail, Setaria viridis)
- PROTOCOL_DETAILS: Test D controlled growth environment herbicide test, pre- and postemergence
- Format: in vivo
- SETTINGS: Preemergence, 62 g ai/ha
# print the numeric value only

Cc1cc(C)c2sc(C)c(-c3c(OC(=O)OCCCl)c(C)nn(C)c3=O)c2c1: 55
CC(=O)Oc1c(Br)nn(C)c(=O)c1-c1c(C)ccc2ccccc12: 70
CCC(=O)Oc1c(C)nn(C)c(=O)c1-c1c(C)sc2ccc(Cl)cc12: 65
Cc1nn(C)c(=O)c(-c2c(C)sc3ccc(Cl)cc23)c1O: 70

According to the records, this compound CC(=O)Oc1c(C)nn(C)c(=O)c1-c1ccc(F)c2ccccc12 displays Plant response rating (scale of 0 to 100), Foxtail, Green of 45

====

Quick reference for Plant response rating, Velvetleaf among some compounds
- Test system: velvetleaf (Abutilon theophrasti)
- PROTOCOL_DETAILS: Test C greenhouse herbicide test, pre- and postemergence
- Assay type: in vivo
- SETTINGS: Postemergence, 31 g ai/ha; scale 0 to 100 (0 no effect, 100 complete control)
Format: numeric value only, no unit, no commentary.

Cc1nn(C)c(=O)c(-c2ccc(F)c3ccccc23)c1OC(=O)CC(F)(F)F [Compound 123]: 65
Cc1nn(C)c(=O)c(-c2c(C)sc3ccc(Cl)cc23)c1O [Compound 104]: 50
CSCC(=O)Oc1c(C)nn(C)c(=O)c1-c1cccc2ccccc12 [Compound 171]: 35
COC(=O)Oc1c(Br)nn(C)c(=O)c1-c1c(C)ccc2ccccc12 [Compound 137]: 85

The reported velvetleaf (Abutilon theophrasti) Plant response rating, Velvetleaf of CC(=O)Oc1c(C)nn(C)c(=O)c1-c1c(C)cc(C)c2ccccc12 [Compound 153] is 85
